Listed here: items and their measured log10(IC50).
tested_target: iNOS (Type 2) (Rattus norvegicus)
method: biochemical
Type: biochemical
cond: mean of one to four independent experiments; crude enzyme, 100 nM L-[3H]arginine, without CaCl2 and calmodulin; read-out: IC50 value, iNOS (Type 2)
Counter-ions that a name gives are not always drawn.
Recorded IC50 (log10, nM)

Solved entries:
CCSC(=N)Nc1cccc(CN)c1.Cl.Cl [Example 28, dihydrochloride]; 1.51
CCN=C(N)Nc1cccc(CN)c1Cl.Cl.Cl [Example 538, dihydrochloride]; 2.49

query: Param item = CCC(N)c1cccc(NC(=N)SC)c1 (stereo not drawn) [Example 19, dihydrochloride] ; retrieve measured log10(IC50).
result: 3.38

query: And what about the compound CSC(=N)Nc1cccc(C(C)(C)N)c1.Cl.Cl [Example 5, dihydrochloride] ?
result: 2.65

query: Param item: CSC(=N)Nc1cccc(C(C)N)c1.Cl.Cl (stereo not drawn) [Example 12, dihydrochloride]
result: 2.38

query: Note, next up: CCSC(=N)Nc1ccc(OC)c(C(C)(C)N)c1
result: 4.77

query: Also, CC(N)c1cccc(NC(N)=N[N+](=O)[O-])c1 (stereo not drawn) [Example 14, hydrochloride] please.
result: 3.57

query: Param item: CCSC(=N)Nc1ccc(N(C)C)c(CN)c1.Cl.Cl.Cl [Example 270, trihydrochloride]
result: 3.66

query: What do we get for CCSC(=N)Nc1cccc(CN)c1C.Cl.Cl [Example 131, dihydrochloride] ?
result: 1.89

---

Readings of pIC50 for the listed molecules
tested_target: E-cNOS (Type 3) (Bos taurus, UniProt P29473)
Construct: the resulting supernatant was used as the crude enzyme sample of E-cNOS; endogenous in cells; host or cells: CPAE (cow pulmonary arterial endothelium cells), 1% Triton X-100 extract, 100,000 x g supernatant
method: biochemical
cond: mean of one to four independent experiments; crude enzyme, 100 nM L-[3H]arginine; read-out: IC50 value, E-cNOS (Type 3)
Counter-ions that a name gives are not always drawn.
Just so you know, pIC50 here is -log10 of the concentration in molar units; reply with that number alone.

Use the examples below as a reference point.
CCSC(=N)Nc1ccc(OC)c(CN)c1OC [Example 298, dihydrochloride]; 5.38
CCSC(=N)Nc1cccc(C2(N)CCC2)c1 [Example 162, dihydrochloride]; 6.24
CCSC(=N)Nc1cccc(C(C)NC)c1 (stereo not drawn) [Example 112, dihydrochloride]; 6.39
CN=C(N)Nc1cccc(CN)c1 [Example 367, dihydrochloride]; 5.43
CCSC(=N)Nc1cccc(C2(N)CCCC2)c1 [Example 153, dihydrochloride]; 6.37

query: What does the data say about its pIC50? Entry: CCN(C)C(=N)Nc1cccc(CN)c1 [Example 305, dihydrochloride]
result: 5.77

query: Next entry: CCN=C(N)Nc1ccc(N(C)CC)c(CN)c1 [Example 285, trihydrochloride]
result: 5.14

---

In this section we review reported pIC50 values for a set of compounds.
tested_target: E-cNOS (Type 3) (Bos taurus, UniProt P29473)
Construct: the resulting supernatant was used as the crude enzyme sample of E-cNOS; endogenous in cells; host or cells: CPAE (cow pulmonary arterial endothelium cells), 1% Triton X-100 extract, 100,000 x g supernatant
method: biochemical
cond: mean of one to four independent experiments; crude enzyme, 100 nM L-[3H]arginine; read-out: IC50 value, E-cNOS (Type 3)
Where a name gives a salt, the structure may show the parent alone.
On this scale, pIC50 is minus log10 of a concentration expressed in M (mol/L).

Previously resolved entries follow.
CCSC(=N)Nc1ccc(NC)c(CN)c1.Cl.Cl.Cl [Example 452, trihydrochloride]; 5.44
CCSC(=N)Nc1cccc(CNC)c1C [Example 411, dihydrochloride]; 6.47

query: What does the record list as pIC50 for CCSC(=N)Nc1ccc(OC)c(CN)c1 [Example 122, dihydrochloride] ?
result: 5.45

query: Cool, now CCSC(=N)Nc1ccc(NCc2ccccc2)c(CN)c1 [Example 438, trihydrochloride]
result: 5.16

query: // next record CSC(=N)Nc1cccc(CN)c1.Cl.Cl [Example 26, dihydrochloride]
result: 6.37

---

tested_target: UniProt Q06518
method: biochemical
Assay type: biochemical
List of Ratio of IC50 values E-cNOS/iNOS values.

Worked cases, answers included:
CCSC(=N)Nc1ccc(NC)c(CN)c1.Cl.Cl.Cl; 0.5
CSC(=N)NCCC[C@H](N)C(=O)O [L-MIN, S-methyl-L-thiocitrulline, reference compound]; 0.6
CSC(=N)Nc1cccc(C(C)N)c1.Cl.Cl (stereo not drawn); 2.3
CCN=C(N)Nc1cccc(CN)c1Cl.Cl.Cl; 8.3
CCSC(=N)Nc1cccc(CN)c1C.Cl.Cl; 6.2

Consider the record given below.
query: Entry CC(C)(N)c1cccc(NC(N)=N[N+](=O)[O-])c1.Cl : reported Ratio of IC50 values E-cNOS/iNOS = ?
result: 0.02

---

tested_target: E-cNOS (Type 3) (Bos taurus)
Construct: the resulting supernatant was used as the crude enzyme sample of E-cNOS; endogenous in cells; host or cells: CPAE (cow pulmonary arterial endothelium cells), 1% Triton X-100 extract, 100,000 x g supernatant
method: biochemical
cond: mean of one to four independent experiments; crude enzyme, 100 nM L-[3H]arginine; read-out: IC50 value, E-cNOS (Type 3)
Where a name gives a salt, the structure may show the parent alone.
Property: IC50; scope: individual molecules
Unit nM implied. Number only.

CSC(=N)NCCC[C@H](N)C(=O)O [L-MIN, S-methyl-L-thiocitrulline, reference compound]; 152
CCN=C(N)Nc1cccc(C(C)(C)N)c1 [Example 300, dihydrochloride]; 492
CCSC(=N)Nc1ccc(OC)c(C(C)(C)N)c1; 15800
CN(C)c1ccc(NC(N)=N[N+](=O)[O-])cc1CN [Example 281, dihydrochloride]; 1620
CCSC(=N)Nc1cccc(C2(N)CC2)c1 [Example 167, dihydrochloride]; 366
CCSC(=N)Nc1cccc(C(C)(C)N)c1.Cl.Cl [Example 96, dihydrochloride]; 198

query: For the molecule shown here, CCN=C(N)Nc1ccc(CCN)cc1 [Example 528, dihydrochloride] , give the reported IC50.
result: 436

query: Thanks! And CCN=C(N)Nc1cccc(CN(C)C)c1 [Example 374, dihydrochloride] ?
result: 1290

query: Another molecule to check: CCSC(N)=NCCC[C@H](N)C(=O)O [L-EIN, S-ethyl-L-thiocitrulline, reference compound]
result: 732

query: // query: CSC(=N)Nc1ccc(CCN)cc1.Cl.Cl [Example 52, dihydrochloride]
result: 483

query: Repeat with CCSC(=N)Nc1cccc(CN)c1C.Cl.Cl [Example 131, dihydrochloride]
result: 481

query: Let us now turn to CCN=C(N)Nc1ccc(N(C)C)c(CN)c1.Cl.Cl.Cl [Example 267, trihydrochloride]
result: 50100

query: Entry to check: CSC(=N)Nc1cccc(C(C)N)c1.Cl.Cl (stereo not shown) [Example 12, dihydrochloride]
result: 538

---

tested_target: iNOS (Type 2) (Rattus norvegicus)
method: biochemical
Assay type: biochemical
cond: mean of one to four independent experiments; crude enzyme, 100 nM L-[3H]arginine, without CaCl2 and calmodulin; read-out: IC50 value, iNOS (Type 2)
Structures can show the parent of a compound that is named as a salt.
assay_endpoint: pIC50
// scale note: pIC50 = -log10(conc_M); give the bare number

query: Given the entry CC(C)(N)c1cccc(NC(N)=N[N+](=O)[O-])c1.Cl [Example 7, hydrochloride] , what pIC50 was observed with iNOS (Type 2) (Rattus norvegicus)?
result: 5.67

query: And the next one, CCN=C(N)Nc1ccc(N(C)C)c(CN)c1.Cl.Cl.Cl [Example 267, trihydrochloride] ?
result: 5.32

query: Also, CSC(=N)NCCC[C@H](N)C(=O)O [L-MIN, S-methyl-L-thiocitrulline, reference compound] please.
result: 6.61

query: Now consider CCSC(=N)Nc1ccc(OC)c(CN)c1 [Example 122, dihydrochloride] and answer again.
result: 4.61

query: Follow-up item: CSC(=N)Nc1cccc(CCN)c1 [Example 60, dihydrochloride]
result: 5.17

query: Please answer likewise for CCSC(=N)Nc1ccc(CCN)cc1.Cl.Cl [Example 104, dihydrochloride]
result: 7.06

---

Recorded measurements of pIC50, one per entry
tested_target: iNOS (Type 2) (Rattus norvegicus, UniProt Q06518)
Sequence (Q06518 whole entry, looked up): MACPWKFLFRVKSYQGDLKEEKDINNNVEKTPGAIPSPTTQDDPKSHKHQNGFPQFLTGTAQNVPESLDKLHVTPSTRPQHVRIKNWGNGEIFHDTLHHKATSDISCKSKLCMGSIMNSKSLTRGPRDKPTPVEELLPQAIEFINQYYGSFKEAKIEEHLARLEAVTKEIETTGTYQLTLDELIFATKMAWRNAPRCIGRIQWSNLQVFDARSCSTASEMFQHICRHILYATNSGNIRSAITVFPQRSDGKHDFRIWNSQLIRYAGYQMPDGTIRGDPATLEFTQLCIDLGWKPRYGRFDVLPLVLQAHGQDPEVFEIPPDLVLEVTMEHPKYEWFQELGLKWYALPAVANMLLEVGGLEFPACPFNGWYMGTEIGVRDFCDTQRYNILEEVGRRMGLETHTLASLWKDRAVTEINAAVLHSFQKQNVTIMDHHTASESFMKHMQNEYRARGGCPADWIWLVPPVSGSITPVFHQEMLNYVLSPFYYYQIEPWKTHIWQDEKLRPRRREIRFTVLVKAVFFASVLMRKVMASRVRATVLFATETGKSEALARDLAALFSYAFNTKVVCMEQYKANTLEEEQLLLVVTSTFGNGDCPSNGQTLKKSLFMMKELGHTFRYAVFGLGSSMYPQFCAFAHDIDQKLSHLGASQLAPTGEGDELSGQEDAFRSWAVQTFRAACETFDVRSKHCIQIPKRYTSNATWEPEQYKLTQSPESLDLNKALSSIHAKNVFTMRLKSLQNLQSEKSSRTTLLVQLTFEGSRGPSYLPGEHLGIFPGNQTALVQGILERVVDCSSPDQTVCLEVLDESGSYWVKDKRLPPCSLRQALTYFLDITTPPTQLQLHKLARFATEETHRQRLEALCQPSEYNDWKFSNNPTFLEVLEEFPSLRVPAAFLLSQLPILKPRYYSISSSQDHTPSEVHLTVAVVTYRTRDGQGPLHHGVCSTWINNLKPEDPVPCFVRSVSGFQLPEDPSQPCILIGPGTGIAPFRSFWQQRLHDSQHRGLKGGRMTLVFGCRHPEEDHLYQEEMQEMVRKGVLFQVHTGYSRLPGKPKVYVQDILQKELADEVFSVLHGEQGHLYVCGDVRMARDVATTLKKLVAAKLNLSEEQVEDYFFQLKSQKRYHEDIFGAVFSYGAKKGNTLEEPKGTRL
method: biochemical
Type: biochemical
cond: mean of one to four independent experiments; crude enzyme, 100 nM L-[3H]arginine, without CaCl2 and calmodulin; read-out: IC50 value, iNOS (Type 2)
Where a name gives a salt, the structure may show the parent alone.
Remember the convention: pIC50 equals -log10 of concentration in molar.

query: Please state recorded pIC50 (tested on iNOS (Type 2) (Rattus norvegicus, UniProt Q06518)) of CCSC(=N)Nc1cccc(C(C)(C)N)c1.Cl.Cl [Example 96, dihydrochloride]
result: 7.54

query: Also, CSC(=N)Nc1cccc(CN)c1.Cl.Cl [Example 26, dihydrochloride] please.
result: 5.87

query: CCOc1ccc(NC(=N)SCC)cc1CN.Cl.Cl [Example 324, dihydrochloride] , same question.
result: 5.06

query: Please do the same for CN(C)Cc1cccc(NC(N)=N[N+](=O)[O-])c1 [Example 39, acetate] as well.
result: 4.64

query: Item: CCC(N)c1cccc(NC(N)=N[N+](=O)[O-])c1 (stereo not drawn) [Example 21, hydrochloride]
result: 5.58

query: Queued: CCSC(N)=NCCC[C@H](N)C(=O)O [L-EIN, S-ethyl-L-thiocitrulline, reference compound]
result: 5.17

query: Lookup CSC(=N)Nc1ccc(CCN)cc1.Cl.Cl [Example 52, dihydrochloride]
result: 5.56

query: Same question, N=C(Nc1ccc(CCN)cc1)N[N+](=O)[O-] this time
result: 5.30

query: One more molecule: CCSC(=N)Nc1ccc(NC)c(CN)c1.Cl.Cl.Cl [Example 452, trihydrochloride]
result: 5.16
